These data points were gathered from paper doi:10.1101/2021.05.05.442573.

- TARGET OR TEST SYSTEM: the molecule itself
- EXPERIMENT SUMMARY: cross-linking; in vitro BMOE cysteine cross-linking of purified ParB (10 uM monomer, 1 mM BMOE, 5 min RT; 150 mM NaCl, 50 mM Tris-HCl pH 7.5, 5 mM MgCl2); without ligand, with 1 mM CTP or CTPγS, with 1 uM 40 bp parS DNA, or with both; SDS-PAGE, Coomassie
ATTRIBUTE MEASURED: binding result

ParB(T22C), purified (natural protein, B. subtilis, UniProt P26497 1-282, looked up, Purification as in Soh et al., 2019; source: E. coli BL21-Gold (DE3), untagged, purified (ammonium sulfate, heparin, HiTrap SP, Superdex 200)) MAKGLGKGINALFNQVDLSEECVEEIKIADLRPNPYQPRKHFDDEALAELKESVLQHGILQPLIVRKSLKGYDIVAGERRFRAAKLAGLDTVPAIVRELSEALMREIALLENLQREDLSPLEEAQAYDSLLKHLDLTQEQLAKRLGKSRPHIANHLRLLTLPENIQQLIAEGTLSMGHGRTLLGLKNKNKLEPLVQKVIAEQLNVRQLEQLIQQLNQNVPRETKKKEPVKDAVLKERESYLQNYFGTTVNIKRQKKKGKIEIEFFSNEDLDRILELLSERES :: binds
